- System: 786-0 renal
- test: NCI tumour cell line growth inhibition, 48 h; in the data active = GI50 below about 0.43 µM; inactive = the rest
Lab note: assign the record to one of 1 (active), 0 (inactive)

-- ask Recorded call for CCN(C(=O)N1CCN(c2cc3c(cc2F)c(=O)c(C(=O)O)cn3C2CC2)CC1)c1nc(-c2ccccc2)cs1 ?
-- reply 0

-- ask Recorded call for CN(C)c1ccc(/C=C/C(=O)c2ccc(Nc3nc(Nc4ccc(F)cc4)nc(Nc4ccc(F)cc4)n3)cc2)cc1 ?
-- reply 0

-- ask Recorded call for CC(C)C[C@H](CC(=O)O)C(=O)N[C@@H](Cc1c[nH]c2ccccc12)C(=O)N[C@@H](C)c1ccccc1 ?
-- reply 0

-- ask Recorded call for COc1cccc(/C=N/[N-]C(=O)c2ccncc2)c1[O-].[Mn+2].[OH3+] ?
-- reply 0

###

- Tested on: SN12C renal
- test: NCI tumour cell line growth inhibition, 48 h
measurement kind: TGI (µM)
Field: numeric (µM). Do not append units.

* CC(=O)Nc1ccc(-c2nnc(SCC(=O)Nc3cccc(C)c3)o2)cc1 | 28.5

TGI recorded for this compound, Cc1ccc2nc(NC(=O)C(=O)C(C(=O)c3ccc4ccccc4c3)C3OC(=O)c4ccccc43)sc2c1 (centres undefined) , is 31.6

TGI recorded for this compound, CN1CCN(CCCOc2cccc3nc(Nc4cc(Cl)cc(Cl)c4)ccc23)CC1 , is 13.9

TGI recorded for this compound, C#CCN(N=O)C(=O)NC(CCCCNC(=O)OCc1ccccc1)C(=O)OCc1ccccc1 (centres undefined) , is 97.9

TGI recorded for this compound, CC(=N/NC(=S)N1CCCCCC1)/C(C)=N\NC(=S)N1CCCCCC1 , is 3.99

TGI recorded for this compound, COc1ccccc1N1CCN(CCCCNC(=O)c2ccc([N+](=O)[O-])o2)CC1 , is 17.4

###

- Tested on: NCI-H522 lung
- test: NCI tumour cell line growth inhibition, 48 h
measurement kind: log10 TGI (log10 of the value in µM)
Field: value | Transform: log10 | Quantity: TGI | Unit: µM

Look over these answered cases.
- Cc1cc(S(=O)(=O)/N=C(\N)Nc2cccc(O)c2)c(SCc2ccccc2)cc1Cl: 1.62
- O/N=C1/CCCC/C1=C/C=C/c1ccccc1: 1.53
- CCOC(=O)/C(Br)=C1\OC(=O)c2ccccc2-c2ccccc21: 1.79
- CC1(C)OB(c2ccc(N(CCOS(C)(=O)=O)CCOS(C)(=O)=O)cc2)OC1(C)C: 1.87

log10 TGI recorded for this compound, N#Cc1ncc(C(Cl)Cl)nc1Cl , is 0.24

log10 TGI recorded for this compound, Cc1cccc(C(C)(C)C)c1NC(=O)C(C#N)C1=C(Cl)C(=O)c2ccccc2C1=O (stereo not given) , is 1.43

log10 TGI recorded for this compound, C/C(=N\Nc1ccccc1)c1sc(-c2nc(C)c(/C(C)=N/Nc3ccccc3)s2)nc1C , is 1.68

log10 TGI recorded for this compound, CCCCCCCCSC(=O)NCCCC , is 1.91

log10 TGI recorded for this compound, Cc1cc2c(cc1Cl)SC(N(c1ccccc1Cl)S(=O)(=O)c1ccc(Br)s1)=NS2(=O)=O , is 1.50

log10 TGI recorded for this compound, Cc1c2cnccc2c(C)c2c1c1cc(O)ccc1n2C(C)C , is 0.40

log10 TGI recorded for this compound, CCOC(=O)/C(=C/CC/C(C)=C/CC/C(C)=C/CCc1ccoc1)CC(=O)N1CCCCC1 , is 0.96
